assay-notes: NCI Yeast Anticancer Drug Screen. Data for the rad50 strain (AID 155);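 also: 0% = growth of vehicle-only cultures of the same strain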
run-parameters: S. cerevisiae rad50 strain growth inhibition; at 50.0 µM (retest, dose inferred, filed as 5.0); hits give high values
The panel holds about 79,000 compounds, 15% with a hit somewhere; the sample as a whole holds those more often.
Each entry below carries its recorded growth inhibition.
property: growth inhibition (%)

1. CCN(CC)CCNC(=O)c1ccc(N=Cc2cc(Cl)cc(Cl)c2O)cc1; 49
2. CC#CC(=O)Nc1ccccc1CC(c1c[nH]c2ccccc12)c1c[nH]c2ccccc12; 50
3. CC1CCCN(CC(O)CN2CCCc3ccccc32)C1 (stereo unspecified); 32
4. O=c1[nH]c2cc(Cl)ccc2nc1/C=C(\O)c1ccccn1; 79
5. CCCC1(C)C(C#N)(C#N)C1(C#N)C#N; 98
6. COC(=O)C(=O)C(=O)C1CCCC(c2ccccc2)C1=O (stereo unspecified); 96
7. O=C1NC(=O)C(c2ccccc2)(c2ccccc2)C2CC3c4[nH]c5ccccc5c4CCN3CC12 (stereo unspecified); 61
8. CN(C)c1ccc(C(c2cc3c(cc2O)OCO3)N2CCCC2)cc1 (stereo unspecified); 99
9. CCCCCCC1CC(=O)C1(Cl)Cl (stereo unspecified); 100
10. C[n+]1c(/C=C/c2cccc([N+](=O)[O-])c2)sc2ccccc21; 97
11. COc1cccc(C2c3cc4c(cc3OC(N3CCCC3)C2c2ccccc2)OCO4)c1O (stereo unspecified); 98

====

Each entry below carries its recorded growth inhibition.
assay-notes: NCI Yeast Anticancer Drug Screen. Data for the sgs1 mgt1 strain (AID 161);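 also: 0% = growth of cultures given vehicle only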
run-parameters: S. cerevisiae sgs1 mgt1 strain, at 50.0 µM, hits give high values
The panel holds about 79,000 compounds, 15% with a hit somewhere; the sample as a whole holds those more often. Calls of active or inactive are those of the source. No stated cut-off is given here; in the data, active means growth inhibition above about 70%; inactive means the rest.
property: growth inhibition

1) CCN(CC)c1c(C(=O)/C=C/c2ccc(OC)cc2)c(-c2ccccc2)nn(C)c1=O; 69% (inactive)
2) O=C(NC1CCN(Cc2ccccc2)CC1)c1cccc(I)c1; 81% (active)
3) CCOC(=O)C1=C(c2ccccc2)c2ccccc2OC1C(=O)O (centres undefined); 19.5% (inactive)
4) CC(=O)OCc1c2ccccc2c(C)c2c1cc(F)c1ccccc12; 98.1% (active)
5) Nc1ccc2nc(Nc3ccc(Cl)c(Cl)c3)cnc2c1; 87.7% (active)
6) c1ccc(-c2n[nH]c3c4ccccc4c4ccccc4c23)cc1; 94.2% (active)
7) Clc1ccc(CN2COc3c(ccc4ccccc34)C2)cc1; 83.2% (active)
8) Oc1ccc(C2(c3ccc(O)c(Cl)c3)CC3CCC2C3)cc1Cl (centres undefined); 99.3% (active)
9) CCOC(=O)c1c(N)c(=O)n2c3c(cccc13)CC2; 97.7% (active)

====

assay-notes: NCI Yeast Anticancer Drug Screen. Data for the mec2-1 strain (AID 157)
run-parameters: S. cerevisiae mec2-1 strain, at 50.0 µM, hits give high values
About 79,000 compounds went through this panel and 15% of them were active in at least one assay; those are over-represented in the sample as a whole.
Returns one of criterion met or criterion not met; criterion met when growth inhibition is >= 50%.

1) COc1ccc(NC(=O)CC(=O)n2nc(-c3ccccc3)c(N=Nc3ccc(C)cc3)c2-c2ccccc2)cc1; criterion not met
2) CCC1(O)c2ccccc2C(O)(CC)c2ccccc21 (stereo unspecified); criterion met
3) COc1ccc2nc3cc([N+](=O)[O-])ccc3c(NCCO)c2c1; criterion not met
4) Cc1ccc(O)c(-c2cscn2)c1; criterion not met
5) Oc1c2c(c(O)c3ncccc13)C1C=CC2CC1 (stereo unspecified); criterion met
6) CC(NCCO)c1ccc2ccccc2c1 (stereo unspecified); criterion not met
